Tested on: NCI-H719 tumor spheroids, viability
Test: Anticancer human tumor NCI-H719 cell line growth inhibition;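 note: spheroids exposed to compounds for seven days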;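 for viability, T/C: percent viability relative to DMSO vehicle control as 100%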
Details: second compound 0.000949 µM; first compound 3 µM; stronger effect = lower value; spheroids with HUVEC and MSC
Method: Multicellular complex tumor spheroid response to DNA repair inhibitors in combination with DNA-damaging drugs This study explores the anticancer activities of DNA-damaging drugs and inhibitors of DNA damage repair, both as single agents and in combinations. […] Twenty-six patient-derived or established malignant cell lines were evaluated representing sarcoma, melanoma, small cell lung cancer (SCLC), non-small cell lung cancer (NSCLC), as well as bladder, ovarian and pancreatic cancers. […]

compound: Cn1ncnc1[C@H]1c2n[nH]c(=O)c3cc(F)cc(c23)N[C@@H]1c1ccc(F)cc1 + COc1cc2c(cc1O)CCNC21CSC2c3c(OC(C)=O)c(C)c4c(c3C(COC1=O)N1C(O)C3Cc5cc(C)c(OC)c(O)c5C(C21)N3C)OCO4
viability, T/C [%]: 4.33

compound: O=C(c1cc(Cc2n[nH]c(=O)c3ccccc23)ccc1F)N1CCN(C(=O)C2CC2)CC1 + COc1cc2c(cc1O)CCNC21CSC2c3c(OC(C)=O)c(C)c4c(c3C(COC1=O)N1C(O)C3Cc5cc(C)c(OC)c(O)c5C(C21)N3C)OCO4
viability, T/C [%]: 7.26

compound: Cc1sc2c(c1C)C(c1ccc(Cl)cc1)=NC(CC(=O)Nc1ccc(O)cc1)c1nnc(C)n1-2 (centres undefined) + COc1cc2c(cc1O)CCNC21CSC2c3c(OC(C)=O)c(C)c4c(c3C(COC1=O)N1C(O)C3Cc5cc(C)c(OC)c(O)c5C(C21)N3C)OCO4
viability, T/C [%]: 0.53

compound: CNCc1ccc(-c2cc(-c3nc(-c4ccc(S(=O)(=O)C(C)C)cc4)cnc3N)on2)cc1 + COc1cc2c(cc1O)CCNC21CSC2c3c(OC(C)=O)c(C)c4c(c3C(COC1=O)N1C(O)C3Cc5cc(C)c(OC)c(O)c5C(C21)N3C)OCO4
viability, T/C [%]: 0.62

###

System: NCI-H719 tumor spheroids, viability
Assay: Anticancer human tumor NCI-H719 cell line growth inhibition;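 note: spheroids exposed to compounds for seven days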
Details: curve of first compound; second compound 0.03 µM; spheroids with HUVEC and MSC
In this section we review reported IC50 values for a set of compounds.

compound: O=C(c1cc(Cc2n[nH]c(=O)c3ccccc23)ccc1F)N1CCN(C(=O)C2CC2)CC1 + CC[C@@]1(O)C(=O)OCc2c1cc1n(c2=O)Cc2cc3c(CN(C)C)c(O)ccc3nc2-1
IC50: < 94.9 nM

compound: [2H]c1nc(C)nc([2H])c1-c1cc(NC[C@@H](C)c2cccc3c(C(=O)NC)ccnc23)ncn1 + CC[C@@]1(O)C(=O)OCc2c1cc1n(c2=O)Cc2cc3c(CN(C)C)c(O)ccc3nc2-1
IC50: < 31.6 nM

compound: COc1cc(C)[nH]c(=O)c1CN1CCc2c(Cl)cc(C(OC)C3COC3)c(Cl)c2C1=O (stereo not given) + CC[C@@]1(O)C(=O)OCc2c1cc1n(c2=O)Cc2cc3c(CN(C)C)c(O)ccc3nc2-1
IC50: < 31.6 nM

compound: COc1ccc([C@@H](O)c2cc(-c3ncnc4cc(N5CCOCC5)ccc34)c(F)cc2Cl)nn1 + CC[C@@]1(O)C(=O)OCc2c1cc1n(c2=O)Cc2cc3c(CN(C)C)c(O)ccc3nc2-1
IC50: < 31.6 nM

compound: CNCc1ccc(-c2cc(-c3nc(-c4ccc(S(=O)(=O)C(C)C)cc4)cnc3N)on2)cc1 + CC[C@@]1(O)C(=O)OCc2c1cc1n(c2=O)Cc2cc3c(CN(C)C)c(O)ccc3nc2-1
IC50: < 9.49 nM

###

Tested on: NCI-H719 tumor spheroids, viability
Experiment: Anticancer human tumor NCI-H719 cell line growth inhibition;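 note: spheroids exposed to compounds for seven days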;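 for viability, T/C: percent viability relative to DMSO vehicle control as 100%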
Details: second compound 0.000949 µM; first compound 0.1 µM; stronger effect = lower value; spheroids with HUVEC and MSC

compound: COc1cc(C)[nH]c(=O)c1CN1CCc2c(Cl)cc(C(OC)C3COC3)c(Cl)c2C1=O (centres undefined) + COc1cc2c(cc1O)CCNC21CSC2c3c(OC(C)=O)c(C)c4c(c3C(COC1=O)N1C(O)C3Cc5cc(C)c(OC)c(O)c5C(C21)N3C)OCO4
viability, T/C: 6.88%
//
compound: [2H]c1nc(C)nc([2H])c1-c1cc(NC[C@@H](C)c2cccc3c(C(=O)NC)ccnc23)ncn1 + COc1cc2c(cc1O)CCNC21CSC2c3c(OC(C)=O)c(C)c4c(c3C(COC1=O)N1C(O)C3Cc5cc(C)c(OC)c(O)c5C(C21)N3C)OCO4
viability, T/C: 7.59%
//
compound: Cc1cc(C)c(CNC(=O)c2cc(-c3ccc(CN4CCOCC4)cc3)cc3c2cnn3C2CCCC2)c(=O)[nH]1 + COc1cc2c(cc1O)CCNC21CSC2c3c(OC(C)=O)c(C)c4c(c3C(COC1=O)N1C(O)C3Cc5cc(C)c(OC)c(O)c5C(C21)N3C)OCO4
viability, T/C: 7.33%
//
compound: CC(C)n1c(=O)n(C)c2cnc3cc(F)c(-c4ccc(OCCCN5CCCCC5)nc4)cc3c21 + COc1cc2c(cc1O)CCNC21CSC2c3c(OC(C)=O)c(C)c4c(c3C(COC1=O)N1C(O)C3Cc5cc(C)c(OC)c(O)c5C(C21)N3C)OCO4
viability, T/C: 7.84%

###

# Lookup of reported viability, T/C keyed by entry
System: NCI-H719 tumor spheroids, viability
Assay: Anticancer human tumor NCI-H719 cell line growth inhibition;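 note: spheroids exposed to compounds for seven days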;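 for viability, T/C: percent viability relative to DMSO vehicle control as 100%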
Conditions: second compound 0.000949 µM; first compound 1 µM; stronger effect = lower value; spheroids with HUVEC and MSC

compound: COc1ccc([C@@H](O)c2cc(-c3ncnc4cc(N5CCOCC5)ccc34)c(F)cc2Cl)nn1 + COc1cc2c(cc1O)CCNC21CSC2c3c(OC(C)=O)c(C)c4c(c3C(COC1=O)N1C(O)C3Cc5cc(C)c(OC)c(O)c5C(C21)N3C)OCO4
study-target: NCI-H719 tumor spheroids, viability
viability, T/C (%): 4.41

compound: Cc1cc(C)c(CNC(=O)c2cc(-c3ccc(CN4CCOCC4)cc3)cc3c2cnn3C2CCCC2)c(=O)[nH]1 + COc1cc2c(cc1O)CCNC21CSC2c3c(OC(C)=O)c(C)c4c(c3C(COC1=O)N1C(O)C3Cc5cc(C)c(OC)c(O)c5C(C21)N3C)OCO4
study-target: NCI-H719 tumor spheroids, viability
viability, T/C (%): 6.61

compound: CC(C)n1c(=O)n(C)c2cnc3cc(F)c(-c4ccc(OCCCN5CCCCC5)nc4)cc3c21 + COc1cc2c(cc1O)CCNC21CSC2c3c(OC(C)=O)c(C)c4c(c3C(COC1=O)N1C(O)C3Cc5cc(C)c(OC)c(O)c5C(C21)N3C)OCO4
study-target: NCI-H719 tumor spheroids, viability
viability, T/C (%): 6.68

compound: CC1COCCN1c1cc(-c2ccnn2C)c2ccnc(-c3ccn[nH]3)c2n1 (stereo unspecified) + COc1cc2c(cc1O)CCNC21CSC2c3c(OC(C)=O)c(C)c4c(c3C(COC1=O)N1C(O)C3Cc5cc(C)c(OC)c(O)c5C(C21)N3C)OCO4
study-target: NCI-H719 tumor spheroids, viability
viability, T/C (%): 3.98

compound: [2H]c1nc(C)nc([2H])c1-c1cc(NC[C@@H](C)c2cccc3c(C(=O)NC)ccnc23)ncn1 + COc1cc2c(cc1O)CCNC21CSC2c3c(OC(C)=O)c(C)c4c(c3C(COC1=O)N1C(O)C3Cc5cc(C)c(OC)c(O)c5C(C21)N3C)OCO4
study-target: NCI-H719 tumor spheroids, viability
viability, T/C (%): 6.63

compound: COc1cc(C)[nH]c(=O)c1CN1CCc2c(Cl)cc(C(OC)C3COC3)c(Cl)c2C1=O (stereo unspecified) + COc1cc2c(cc1O)CCNC21CSC2c3c(OC(C)=O)c(C)c4c(c3C(COC1=O)N1C(O)C3Cc5cc(C)c(OC)c(O)c5C(C21)N3C)OCO4
study-target: NCI-H719 tumor spheroids, viability
viability, T/C (%): 6.65

###

// viability, T/C lookup, one value per entry
System: NCI-H719 tumor spheroids, viability
Test: Anticancer human tumor NCI-H719 cell line growth inhibition;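 note: spheroids exposed to compounds for seven days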;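 for viability, T/C: percent viability relative to DMSO vehicle control as 100%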
Conditions: second compound 1 µM; first compound 0.0949 µM; stronger effect = lower value; spheroids with HUVEC and MSC

molecule: CNCc1ccc(-c2cc(-c3nc(-c4ccc(S(=O)(=O)C(C)C)cc4)cnc3N)on2)cc1 + Cn1nnc2c(C(N)=O)ncn2c1=O
units-of-measure: %
viability, T/C: 43.5
//
molecule: Cc1sc2c(c1C)C(c1ccc(Cl)cc1)=NC(CC(=O)Nc1ccc(O)cc1)c1nnc(C)n1-2 (centres undefined) + Cn1nnc2c(C(N)=O)ncn2c1=O
units-of-measure: %
viability, T/C: 41.9
//
molecule: O=C(c1cc(Cc2n[nH]c(=O)c3ccccc23)ccc1F)N1CCN(C(=O)C2CC2)CC1 + Cn1nnc2c(C(N)=O)ncn2c1=O
units-of-measure: %
viability, T/C: 73.7
//
molecule: Cn1ncnc1[C@H]1c2n[nH]c(=O)c3cc(F)cc(c23)N[C@@H]1c1ccc(F)cc1 + Cn1nnc2c(C(N)=O)ncn2c1=O
units-of-measure: %
viability, T/C: 7.66
